target: UniProt Q01064; test: In vitro HTRF PDE1 inhibition assay (PDE1B); assay type: biochemical; settings: in vitro PDE1B HTRF Assay; read-out: IC50
recorded.endpoint: IC50

{"molecule": "Cn1c(OCc2cccc(C#N)c2)nn2c(C3CCOCC3)ncc2c1=O [Example 29]", "tgt": "UniProt Q01064", "IC50": "1 to 10 µM"}
{"molecule": "CCn1c(O[C@H]2CC[C@H](OC)CC2)nn2c(C3CCOCC3)ncc2c1=O [Example 310]", "tgt": "UniProt Q01064", "IC50": "< 1 µM"}
{"molecule": "CCOC[C@H]1CC[C@@H](Oc2nn3c(C4CCOCC4)ncc3c(=O)n2C)CC1 [Example 320]", "tgt": "UniProt Q01064", "IC50": "< 1 µM"}

// next item, IC50 requested
COc1nn2c(C3CCOCC3)ncc2c(=O)n1Cc1ccccn1 [Example 268] yielded IC50 of 1 to 10 µM

* * *

The following molecules are listed with their measured IC50 values.
target: PDE1B (Homo sapiens, UniProt Q01064); experiment: In vitro HTRF PDE1 inhibition assay (PDE1B); assay type: biochemical; details: in vitro PDE1B HTRF Assay; read-out: IC50
Sequence (Q01064 whole entry): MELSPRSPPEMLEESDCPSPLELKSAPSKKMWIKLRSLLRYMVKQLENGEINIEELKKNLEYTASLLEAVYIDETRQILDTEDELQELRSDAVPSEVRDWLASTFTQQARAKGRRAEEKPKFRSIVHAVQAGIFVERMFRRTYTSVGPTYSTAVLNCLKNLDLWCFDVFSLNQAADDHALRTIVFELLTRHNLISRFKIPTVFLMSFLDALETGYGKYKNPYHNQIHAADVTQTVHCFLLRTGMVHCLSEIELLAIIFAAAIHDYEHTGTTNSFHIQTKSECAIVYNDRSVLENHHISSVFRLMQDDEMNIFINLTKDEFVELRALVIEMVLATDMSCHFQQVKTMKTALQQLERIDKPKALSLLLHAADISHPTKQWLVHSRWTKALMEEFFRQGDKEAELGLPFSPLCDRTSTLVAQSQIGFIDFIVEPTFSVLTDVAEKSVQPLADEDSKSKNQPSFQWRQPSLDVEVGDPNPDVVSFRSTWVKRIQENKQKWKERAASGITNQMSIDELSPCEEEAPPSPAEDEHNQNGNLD

Please review the entries below; each comes with its answer.
{"molecule": "CC(C)c1ncc2c(=O)n(C)c(NCc3ccc(Cl)cn3)nn12 [Example 149]", "reported.measurement": "< 1000 nM"}
{"molecule": "CC(C)c1ccc([C@H]2CCCN2c2nn3c(C(C)C)ncc3c(=O)n2C)cc1 [Example 166]", "reported.measurement": "< 1000 nM"}
{"molecule": "COC[C@H]1CC[C@H](Oc2nn3c(C4CCOCC4)ncc3c(=O)n2C)CC1 [Example 316]", "reported.measurement": "< 1000 nM"}

CCn1c(OCC2CCC(F)(F)CC2)nn2c(N3CCCC3)ncc2c1=O [Example 332] yielded IC50 of 10000 to 100000 nM

Cn1c(OCc2ccc(-c3ccccn3)cc2)nn2c(C3CCOCC3)ncc2c1=O [Example 44] yielded IC50 of < 1000 nM

Cc1ccc([C@@H]2CCCN2c2nn3c(C(C)C)ncc3c(=O)n2C)cn1 [Example 217] yielded IC50 of 1000 to 10000 nM

* * *

molecular target: PDE1B (Homo sapiens); assay: In vitro HTRF PDE1 inhibition assay (PDE1B); format: biochemical; settings: in vitro PDE1B HTRF Assay; read-out: IC50
pIC50: −log10 of the molar value.
The following molecules are listed with their measured pIC50 values.

Please review the entries below; each comes with its answer.
{"molecule": "CCn1c(OCCc2ccc(F)cc2)nn2c(C3CCOCC3)ncc2c1=O [Example 70]", "reported.measurement": "> 6.00"}
{"molecule": "Cn1c(O[C@H]2CC[C@H](O)CC2)nn2c(C3CCOCC3)ncc2c1=O [Example 301]", "reported.measurement": "> 6.00"}

// next item, pIC50 requested
CCCn1c(OCC2CCC(F)(F)CC2)nn2c(C3CCOCC3)ncc2c1=O [Example 94] yielded pIC50 of > 6.00
